assay details: in vivo
condition label: rat, plasma, iv, 0.03 mg, Plasma Level, Mean, 30 μg/rat, 120 min, mean of 3 rats
measurement name: concentration at 2 h (ng/mL)

[[record]]
compound = "C=CCN1CC[C@]23c4c5ccc(O)c4O[C@H]2C(=O)CC[C@@]3(O)[C@H]1C5 [naloxone]"
observed = 2.86


---

assay details: in vivo
condition label: rat, plasma, po, 0.03 mg, Plasma Level, Mean, oral (intraduodenal), 30 μg/rat, 5 min, mean of 3 rats
measurement name: concentration at 5 min (ng/mL)

[[record]]
molecule = "C=CCN1CC[C@]23c4c5ccc(O)c4O[C@H]2C(=O)CC[C@@]3(O)[C@H]1C5 [naloxone]"
units = "ng/mL"
observed = 0.37

